System: CDK4 and CDK6
ASSAY NAME: CDK reactivity test 2 (Test Example 2), CDK4/6 reactivity
Type: biochemical
STUDY CONDITIONS: [(V2/V1)+(V4/V3)]/2; relative value when Comparative Polypeptide 2 is set as 1
Procedure: […] V 1: luminescence intensity when using Comparative Polypeptide 2 and CDK4, V 2: luminescence intensity when using any of Polypeptides 2 to 17 and A to E, and CDK4, V 3: luminescence intensity when using Comparative Polypeptide 2 and CDK6, and V 4: luminescence intensity when using any of Polypeptides 2 to 17 and A to E, and CDK6 were measured, and CDK4/6 reactivity was calculated based on the formula ([(V2/V1)+(V4/V3)]/2). […]
No end group written: not given here. *: point of attachment. Biotin = O=C1N[C@H]2[C@H](CS[C@H]2CCCCC(=O)*)N1; Ahx = NCCCCCC(=O)O
Decide using CDK4/6 Reactivity alone. Strictly below 5: Criterion met. Equal to or above 5: Criterion not met.

Field: example entries. Status: answers known.
GMPWSPNPWWHGGGG ({Biotin-Ahx}-GMPWSPNPWWHGGGG) [Polypeptide A, mutant of Polypeptide 1, N-terminal biotin via aminohexane linker]; Criterion not met
GMPASPNPWWRGGGG ({Biotin-Ahx}-GMPASPNPWWRGGGG) [Polypeptide 5, mutant of Polypeptide 1, N-terminal biotin via aminohexane linker]; Criterion met
GMPWSPNPWWRGGGG ({Biotin-Ahx}-GMPWSPNPWWRGGGG) [Polypeptide 1, N-terminal residue biotin-modified via a linker (aminohexane)]; Criterion not met

Now take the following sequence into account.
**Q:** Just wondering, is CDK4/6 Reactivity of GMPWSPNPWWAGGGG ({Biotin-Ahx}-GMPWSPNPWWAGGGG) [Polypeptide 11, mutant of Polypeptide 1, N-terminal biotin via aminohexane linker] below 5?
**A:** Criterion met
